- System: UO-31 renal
- procedure.text: NCI tumour cell line growth inhibition, 48 h
Examples of molecules with documented GI50 follow.

Worked set:
CCOc1cc(Br)c(C(C)NC(=O)c2cccc(OC)c2)cc1OCC (configuration not stated) = 12.1 µM
Nc1nc(N)c(C=Nc2ccc(Br)cc2)c(Nc2ccc(Br)cc2)n1 = 6.55 µM
COc1ccc(-c2ccc(-c3ccc(C(=N)N)nc3)s2)cc1Cl = 1.55 µM
COc1ccc2c(c1)CC[C@@H]1[C@@H]2CC[C@]2(C)[C@@H](NC(=O)/C=C/c3ccc(O)c(O)c3)CC[C@@H]12 = 1.26 µM
COc1cccc(-c2ccc3c(c2)C2CCN(Cc4ccccc4)C3C2)c1 (configuration not stated) = 6.79 µM

Incoming: Quick check: GI50 of COc1ccc2c(C3(c4cn(C)c5cc(OC)ccc45)C(=O)Nc4ccc(Cl)cc43)cn(C)c2c1 ?
Outgoing: 1.48 µM

Incoming: Quick one: GI50 for COc1ccc(S(=O)(=O)NC2=NCCN2C(=S)SN2CCn3c2nsc3=S)cc1 ?
Outgoing: 1.61 µM
